ASSAYED_SYSTEM: T1, human β-factor XIIa (human), P00748
T1 chain 1: NGPLSCGQR
T1 chain 2: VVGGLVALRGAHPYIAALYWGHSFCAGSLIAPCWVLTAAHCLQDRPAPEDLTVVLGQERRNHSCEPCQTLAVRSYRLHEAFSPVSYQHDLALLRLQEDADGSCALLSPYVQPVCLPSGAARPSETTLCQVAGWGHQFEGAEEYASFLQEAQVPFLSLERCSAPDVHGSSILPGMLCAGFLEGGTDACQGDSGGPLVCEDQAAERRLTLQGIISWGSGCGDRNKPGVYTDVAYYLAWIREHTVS
PROTOCOL_TEXT: competitive protease inhibition assay, 0.5 nM FXIIa, Boc-QGR-MCA substrate (unit as printed; probably pM)
MEASURED_ATTRIBUTE: Ki (nM)
Could you give me the number in nM? Just the number is fine.

Consider the binder GGICPRFGRLCRRDSDCPGACICRATRFCGSGSD (modifications not checked) [Cyclic MCoFx6] and give its measured Ki.
1.09
